# system tested: T1, human GLP-1 receptor (human, UniProt P43220 24-463)
# T1 construct: whole, on cells; reporter assay on whole cells
# method: SPA displacement of [125I]GLP-1(7-36)NH2 from hGLP-1R BHK membranes
*1 amine or outer side, *2 acyl side, *3 side chain or, on linkers, in order; H or OH if unused. Where no end group is shown, it is not given here. Side-chain parts run from the residue outwards. [ ]: non-standard residue; d: D form. The star is where a group is joined. C18 diacid = O=C(O)CCCCCCCCCCCCCCCCC(=O)*; γGlu = O=C(O)[C@H](CCC(=O)[*:2])N[*:1]; Desaminohistidyl = O=C(CCc1c[nH]cn1)*; Aib = CC(C)(N)C(=O)O

binder	IC50
[Desaminohistidyl][Aib]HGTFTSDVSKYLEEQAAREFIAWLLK([Ado-Ado-γGlu-γGlu-γGlu-C18 diacid])T (Named as peptide, not peptide amide (C-terminal acid))	4.6 nM
[Desaminohistidyl][Aib]HGTFTSDYSKYLEEQAAREFIAWLLKGK([Gly-Ser-Glu-Gly-Ser-γGlu-γGlu-C18 diacid])G	3.2 nM
[Desaminohistidyl][Aib]HGTFTSDVSRYLEEQAAREFIAWLLK([Gly-Ser-Glu-Gly-Ser-γGlu-γGlu-C18 diacid])T-NH2	0.5 nM
[Desaminohistidyl]AHGTFTSDVSRYLEGRAAREFIAWLLK([Ado-Ado-γGlu-γGlu-γGlu-C18 diacid])	19 nM
